Target: HCV NS3/4A protease genotype 1b (Hepatitis C virus genotype 1b, UniProt P26663)
Test: HCV NS3/4A protease time-resolved fluorescence (TRF) assay, Ki against genotype 1b
Assay type: biochemical
Settings: IC50 [gt-1b] (nM), NS3/4A genotype 1b, enzyme 0.2 nM
Threshold check on IC50: strictly below 0.01 nM is TRUE; on or above 0.01 nM is FALSE.

Check out these entries, answers already filled in.
In the record for Cc1nc2ccccc2c2c1O[C@]1(CC2)C[C@H]2C(=O)N[C@]3(C(=O)NS(=O)(=O)C4(C)CC4)C[C@H]3/C=C\CCCCC[C@H](NC(=O)OC(C)(C)C(F)(F)F)C(=O)N2C1 , is IC50 less than 0.01 nM? FALSE

Repeat for the following molecule: CC(C)(C)OC(=O)N[C@H]1CCCCC/C=C\[C@@H]2C[C@@]2(C(=O)O)NC(=O)[C@@H]2C[C@]3(CCc4c(cnc5ccccc45)O3)CN2C1=O FALSE

Repeat for the following molecule: COc1ccc2nc(C(C)C)c3c(c2c1)C(F)(F)C[C@]1(C[C@H]2C(=O)N[C@]4(C(=O)NS(=O)(=O)C5(C)CC5)C[C@H]4/C=C\CCCCC[C@H](NC(=O)OC(C)(C)CCS(=O)(=O)C(C)C)C(=O)N2C1)O3 FALSE

Further cases:
In the record for Cc1nc2ccccc2c2c1O[C@]1(CC2)C[C@H]2C(=O)N[C@]3(C(=O)NS(=O)(=O)C4(C)CC4)C[C@H]3/C=C\CCCCC[C@H](N)C(=O)N2C1 , is IC50 less than 0.01 nM? FALSE

Repeat for the following molecule: Cc1nc2ccccc2c2c1O[C@]1(CC2)C[C@H]2C(=O)N[C@]3(C(=O)NS(=O)(=O)C4(C)CC4)C[C@H]3/C=C\CCCCC[C@H](NC(=O)OCC(F)(F)F)C(=O)N2C1 FALSE

Repeat for the following molecule: Cc1nc2ccc(F)cc2c2c1O[C@]1(CC2)C[C@H]2C(=O)N[C@]3(C(=O)NS(=O)(=O)C4(C)CC4)C[C@H]3/C=C\CCCCC[C@H](NC(=O)OC3CCCC3)C(=O)N2C1 TRUE

Repeat for the following molecule: Cc1nc2ccc(OC(F)(F)F)cc2c2c1O[C@]1(CC2)C[C@H]2C(=O)N[C@]3(C(=O)NS(=O)(=O)C4(C)CC4)C[C@H]3/C=C\CCCCC[C@H](NC(=O)OC3(C)CCC3)C(=O)N2C1 TRUE

Repeat for the following molecule: COc1ccc2nc(C)c3c(c2n1)CC[C@]1(C[C@H]2C(=O)N[C@]4(C(=O)NS(=O)(=O)C5(C)CC5)C[C@H]4/C=C\CCCCC[C@H](NC(=O)OC(C)(C)C)C(=O)N2C1)O3 TRUE

Repeat for the following molecule: CC(C)C1(OC(=O)N[C@H]2CCCCC/C=C\[C@@H]3C[C@@]3(C(=O)NS(=O)(=O)C3(C)CC3)NC(=O)[C@@H]3C[C@]4(CCc5c(c(C6CC6)nc6c(F)cccc56)O4)CN3C2=O)CC1 FALSE

Repeat for the following molecule: CC(C)(OC(=O)N[C@H]1CCCCC/C=C\[C@@H]2C[C@@]2(C(=O)NS(=O)(=O)C2(C)CC2)NC(=O)[C@@H]2C[C@]3(CCc4c(c(C5CC5)nc5ccc6c(c45)OCO6)O3)CN2C1=O)C(F)(F)F FALSE

* * *

Target: HCV NS3/4A protease genotype 1b (Hepatitis C virus genotype 1b)
Test: HCV NS3/4A protease time-resolved fluorescence (TRF) assay, Ki against genotype 1b
Format: biochemical
Details: IC50 [gt-1b] (nM), NS3/4A genotype 1b, enzyme 0.2 nM
The following compounds are listed with their measured IC50 values.
Express your answer in nM, writing the number without its unit.

Examples from the recorded data:
Record request: IC50 value, item COc1ccc2nc(C3CC3)c3c(c2c1)C(F)(F)C[C@]1(C[C@H]2C(=O)N[C@]4(C(=O)NS(=O)(=O)C5(C)CC5)C[C@H]4/C=C\CCCCC[C@H](NC(=O)OC4CCCC4)C(=O)N2C1)O3 0.013

Repeat for the following compound: Cc1nc2ccccc2c2c1O[C@]1(CC2)C[C@H]2C(=O)N[C@]3(C(=O)NS(=O)(=O)C4(C)CC4)C[C@H]3/C=C\CCCCC[C@H](NCCC(C)(C)C)C(=O)N2C1 0.132

// next entry
Record request: IC50 value, item Cc1nc2ccccc2c2c1O[C@]1(CC2)C[C@H]2C(=O)N[C@]3(C(=O)NS(=O)(=O)C4(C)CC4)C[C@H]3/C=C\CCCCC[C@H](NCCc3ccccc3)C(=O)N2C1 0.24

* * *

Test system: HCV genotype 1b replicon
Test: HCV replicon assay, genotype 1b replicon EC50
Format: cell-based, Hepatitis C virus
Conditions: Hepatitis C virus, HCV replicon, genotype 1b; read-out: EC50 [gt-1b]
The following compounds are listed with their measured pEC50 values.
Remember the convention: pEC50 equals -log10 of concentration in molar.

Examples from the recorded data:
Record request: pEC50 value, item CCc1nc2ccc(OC)cc2c2c1O[C@]1(CC2)C[C@H]2C(=O)N[C@]3(C(=O)NS(=O)(=O)C4(C)CC4)C[C@H]3/C=C\CCCCC[C@H](NC(=O)c3sccc3F)C(=O)N2C1 [Example 490] 9.33

Repeat for the following compound: CC(C)(C)OC(=O)N[C@H]1CCCCC/C=C\[C@@H]2C[C@@]2(C(=O)NS(=O)(=O)C2(C)CC2)NC(=O)[C@@H]2C[C@]3(CCc4c(c(C(F)(F)F)nc5ccc(OCF)cc45)O3)CN2C1=O [Example 458] 8.85

Repeat for the following compound: CC[C@H](C)OC(=O)N[C@H]1CCCCC/C=C\[C@@H]2C[C@@]2(C(=O)NS(=O)(=O)C2(C)CC2)NC(=O)[C@@H]2C[C@]3(CCc4c(c(C(F)F)nc5ccc(OC)nc45)O3)CN2C1=O [Example 525] 8.94

Repeat for the following compound: COc1ccc2nc(C)c3c(c2c1)CC[C@]1(C[C@H]2C(=O)N[C@]4(C(=O)NS(=O)(=O)C5(C)CC5)C[C@H]4/C=C\CCCCC[C@H](Nc4cccc(OC)n4)C(=O)N2C1)O3 [Example 431] 8.04

// next entry
Record request: pEC50 value, item COc1ccc2nc(C(F)(F)F)c3c(c2c1)CC[C@]1(C[C@H]2C(=O)N[C@]4(C(=O)NS(=O)(=O)C5(C)CC5)C[C@H]4/C=C\CCCCC[C@H](NC(=O)OC(C)C)C(=O)N2C1)O3 [Example 447] 8.86

* * *

Tested on: HCV genotype 1b replicon
Experiment: HCV replicon assay, genotype 1b replicon EC50
Type: cell-based, Hepatitis C virus
Conditions: Hepatitis C virus, HCV replicon, genotype 1b; HCl salt; read-out: EC50 [gt-1b]
pEC50: −log10 of the molar value.
Decision: pEC50 compared against 9; not below it gives TRUE, below it gives FALSE.

Check out these entries, answers already filled in.
Could you please find out whether CCc1nc2ccc(OCCN3CCOCC3)cc2c2c1O[C@]1(CC2)C[C@H]2C(=O)N[C@]3(C(=O)NS(=O)(=O)C4(C)CC4)C[C@H]3/C=C\CCCCC[C@H](NC(=O)OCC(C)C)C(=O)N2C1 has pEC50 that meets 9 or exceeds it? TRUE

Repeat for the following molecule: CC(C)(C)COC(=O)N[C@H]1CCCCC/C=C\[C@@H]2C[C@@]2(C(=O)NS(=O)(=O)C2(C)CC2)NC(=O)[C@@H]2C[C@]3(CCc4c(c(C(F)(F)F)nc5ccc(OCCN6CCOCC6)cc45)O3)CN2C1=O FALSE

// next entry
Could you please find out whether CC(C)COC(=O)N[C@H]1CCCCC/C=C\[C@@H]2C[C@@]2(C(=O)NS(=O)(=O)C2(C)CC2)NC(=O)[C@@H]2C[C@]3(CCc4c(c(C(F)(F)F)nc5ccc(OCCN6CCOCC6)cc45)O3)CN2C1=O has pEC50 that meets 9 or exceeds it? FALSE

* * *

Target: HCV NS3/4A protease genotype 1b (Hepatitis C virus genotype 1b)
Test: HCV NS3/4A protease time-resolved fluorescence (TRF) assay, Ki against genotype 1b
Format: biochemical
Conditions: IC50 [gt-1b] (nM), NS3/4A genotype 1b, enzyme 0.2 nM; HCOOH salt
The following compounds are listed with their measured IC50 values.
Be sure to follow the number with its unit.

Examples from the recorded data:
Record COc1ccc2c3c(c(C4CC4)nc2c1)O[C@]1(CC3)C[C@H]2C(=O)N[C@]3(C(=O)NS(=O)(=O)C4(C)CC4)C[C@H]3/C=C\CCCCC[C@H](NC(=O)O[C@H]3C[C@@H](C)CC[C@@H]3C(C)C)C(=O)N2C1 : what is its IC50 with HCV NS3/4A protease genotype 1b (Hepatitis C virus genotype 1b)? 11.3 nM

Repeat for the following compound: COc1ccc2c3c(c(C4CC4)nc2c1)O[C@]1(CC3)C[C@H]2C(=O)N[C@]3(C(=O)NS(=O)(=O)C4(C)CC4)C[C@H]3/C=C\CCCCC[C@H](NC(=O)CC3CCCC3)C(=O)N2C1 0.044 nM

Repeat for the following compound: Cc1nc2ccccc2c2c1O[C@]1(CC2)C[C@H]2C(=O)N[C@]3(C(=O)NS(=O)(=O)C4(C)CC4)C[C@H]3/C=C\CCCCC[C@H](NC(=O)N(C)c3ccccc3)C(=O)N2C1 0.077 nM

Repeat for the following compound: Cc1nc2ccccc2c2c1O[C@]1(CC2)C[C@H]2C(=O)N[C@]3(C(=O)NS(=O)(=O)C4(C)CC4)C[C@H]3/C=C\CCCCC[C@H](NC(=O)NCc3ccccc3)C(=O)N2C1 0.038 nM

Repeat for the following compound: COc1ccc2c3c(c(C4CC4)nc2c1)O[C@]1(CC3)C[C@H]2C(=O)N[C@]3(C(=O)NS(=O)(=O)C4(C)CC4)C[C@H]3/C=C\CCCCC[C@H](NC(=O)CC(C)(C)C)C(=O)N2C1 [Example 269] 0.337 nM

Repeat for the following compound: COc1ccc2c3c(c(C4CC4)nc2c1)O[C@]1(CC3)C[C@H]2C(=O)N[C@]3(C(=O)NS(=O)(=O)C4(C)CC4)C[C@H]3/C=C\CCCCC[C@H](NC(=O)O[C@@H]3C[C@H](C)CC[C@H]3C(C)C)C(=O)N2C1 3.97 nM

Repeat for the following compound: Cc1nc2ccccc2c2c1O[C@]1(CC2)C[C@H]2C(=O)N[C@]3(C(=O)NS(=O)(=O)C4(C)CC4)C[C@H]3/C=C\CCCCC[C@H](NC(=O)N3CCCCC3)C(=O)N2C1 0.017 nM

Repeat for the following compound: CCCCOC(=O)N[C@H]1CCCCC/C=C\[C@@H]2C[C@@]2(C(=O)NS(=O)(=O)C2(C)CC2)NC(=O)[C@@H]2C[C@]3(CCc4c(c(C5CC5)nc5cc(OC)ccc45)O3)CN2C1=O 0.116 nM

Repeat for the following compound: COc1ccc2c3c(c(C4CC4)nc2c1)O[C@]1(CC3)C[C@H]2C(=O)N[C@]3(C(=O)NS(=O)(=O)C4(C)CC4)C[C@H]3/C=C\CCCCC[C@H](NC(=O)CC(C)(C)C)C(=O)N2C1 (single isomer, unassigned) [Example 279] 0.051 nM

Repeat for the following compound: Cc1nc2ccccc2c2c1O[C@]1(CC2)C[C@H]2C(=O)N[C@]3(C(=O)NS(=O)(=O)C4(C)CC4)C[C@H]3/C=C\CCCCC[C@H](NC(=O)NC(C)C)C(=O)N2C1 0.018 nM

// next entry
Record Cc1nc2ccccc2c2c1O[C@]1(CC2)C[C@H]2C(=O)N[C@]3(C(=O)NS(=O)(=O)C4(C)CC4)C[C@H]3/C=C\CCCCC[C@H](NC(=O)NCCc3ccccc3)C(=O)N2C1 : what is its IC50 with HCV NS3/4A protease genotype 1b (Hepatitis C virus genotype 1b)? 0.131 nM
